# Assay Comment: ATG_RORE_CIS: Attagene CIS-FACTORIAL HepG2 Assay for human RAR-related Orphan Receptor Element (RORE) (AID 2282959)
# Recorded Conditions: HepG2 Attagene cis-factorial RORE reporter, mRNA; actives raise or lower the signal
Calls of active or inactive are those of the source. How the source made its calls: active means hit-call score of the fitted dose curve at least 0.9, where 1 is the maximum; inactive means score below 0.9.
Mark one answer only. Choices: active, inactive

Use these answered entries as a reference point.
CCC[CH2][Sn]([CH2]CCC)([CH2]CCC)[CH2]CCC :: inactive
CNC(=O)O/N=C/C(C)(C)S(C)(=O)=O :: inactive
CCN(CC)C(=O)C(Cl)=C(C)OP(=O)(OC)OC :: inactive
CCCCN(CCCC)C(=S)[S-].CCCCN(CCCC)C(=S)[S-].[Ni+2] :: inactive

Incoming: Which outcome did this test record for the compound CN(N=O)c1ccc([N+](=O)[O-])cc1 ?
Outgoing: inactive

Incoming: Could you please tell me the result logged for CCC(C)(C#N)N=NC(C)(C#N)CC (configuration not stated) in this assay?
Outgoing: inactive

Incoming: For this compound, state the assay outcome: CCOP(=S)(OCC)OP(=S)(OCC)OCC
Outgoing: inactive

Incoming: Assay result, entry O=C(CCl)Nc1ccccc1 — outcome?
Outgoing: inactive

Incoming: Hello, I am checking results. What call was entered for NC(=O)CCl ?
Outgoing: inactive

Incoming: Dear colleague, could you share the recorded outcome for CCOC(=O)CC(=O)CCl when you have a moment?
Outgoing: inactive

---

# Assay Comment: BSK_SAg_PBMCCytotoxicity: PBMC Cytotoxicity Assessment in the BioMAP Diversity Plus: SAg Assay (AID 2283093);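 further: PBMC viability measured as Alamar Blue reduction fluorescence at 546/580 nm; fitted both ways against DMSO so a hit may be loss or gain of signal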
# Recorded Conditions: primary human HUVEC with PBMC
# Experimental: BSK_SAg is a cell-based, multiplexed-readout assay that uses umbilical vein endothelium and peripheral blood mononuclear cells, a human vascular primary cell co-culture, with measurements taken at 24 hours after chemical dosing in a 96-well plate.BSK_SAg_PBMCCytotoxicity is an assay component measured in the BSK_SAg assay. It measures Alamar blue related to cell death using Alamar Blue Reduction technology.Data from the assay component BSK_SAg_PBMCCytotoxicity was analyzed into 1 assay endpoint. […]
Activity calls are given as the source filed them. The calls were made as follows: active = hit-call score of the fitted dose curve at least 0.9, where 1 is the maximum; inactive = score below 0.9.
// allowed return values: y (active), n (inactive)

CCCCCCCCCCCCc1cccc(S(=O)(=O)O)c1 :: n
O=C1C=CC(=O)c2ccccc21 :: y
CN(C)C(=S)S :: y
CCOC(=O)CCN(SN(C)C(=O)Oc1cccc2c1OC(C)(C)C2)C(C)C :: y
Clc1cccc(Cl)c1Cl :: n
Oc1c(Br)cc(Br)cc1Br :: n

Next:
Incoming: Record request — test call for CCCCN(CCCC)C(=S)[S-].CCCCN(CCCC)C(=S)[S-].[Ni+2]
Outgoing: n

---

# System Under Test: Glucocorticoid receptor (Homo sapiens) (UniProt P04150)
# Sequence (P04150 whole entry, looked up): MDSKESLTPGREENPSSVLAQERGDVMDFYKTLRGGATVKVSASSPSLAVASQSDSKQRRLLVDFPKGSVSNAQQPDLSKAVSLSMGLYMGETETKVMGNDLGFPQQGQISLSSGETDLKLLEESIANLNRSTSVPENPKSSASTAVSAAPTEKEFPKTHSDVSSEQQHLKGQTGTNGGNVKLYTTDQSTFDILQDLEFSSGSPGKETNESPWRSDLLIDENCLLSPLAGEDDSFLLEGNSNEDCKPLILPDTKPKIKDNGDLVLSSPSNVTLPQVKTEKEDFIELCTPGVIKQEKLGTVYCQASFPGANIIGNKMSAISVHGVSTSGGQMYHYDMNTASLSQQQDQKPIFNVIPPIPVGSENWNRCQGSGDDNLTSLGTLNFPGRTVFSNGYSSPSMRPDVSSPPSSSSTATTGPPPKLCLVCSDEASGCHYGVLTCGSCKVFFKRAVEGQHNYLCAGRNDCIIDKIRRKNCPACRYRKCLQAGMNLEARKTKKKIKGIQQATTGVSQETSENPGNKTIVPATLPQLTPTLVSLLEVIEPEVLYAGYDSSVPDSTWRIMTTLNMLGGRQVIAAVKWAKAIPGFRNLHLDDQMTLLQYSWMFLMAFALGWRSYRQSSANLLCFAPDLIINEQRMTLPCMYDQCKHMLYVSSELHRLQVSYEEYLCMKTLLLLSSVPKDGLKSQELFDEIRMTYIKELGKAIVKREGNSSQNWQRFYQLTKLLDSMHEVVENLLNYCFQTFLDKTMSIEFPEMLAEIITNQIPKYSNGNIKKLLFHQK
# Assay Comment: NVS_NR_hGR: NovaScreen (NVS) Nuclear Receptor Binding Assay for human Glucocorticoid Receptor (GR) (AID 2283363)
# Experimental: NVS_NR_hGR is a biochemical, single-readout assay that uses extracted gene-proteins in a cell-free assay. Measurements were taken 16 hours after chemical dosing in a 96-well plate.NVS_NR_hGR is one of one assay component(s) measured or calculated from the NVS_NR_hGR assay. […] This assay endpoint, NVS_NR_hGR, was analyzed in the positive analysis fitting direction relative to DMSO as the negative control and baseline of activity. […]
Results filed as inconclusive are left out. Calls of active or inactive are those of the source. Rule for the calls: active = hit-call score of the fitted dose curve at least 0.9, where 1 is the maximum; inconclusive = response in the unintended direction; inactive = score below 0.9.
Write down the outcome that applies. Available outcomes: 1 for active, 0 for inactive

Answered examples (6):
CCOP(=O)(OCC)OC(=CCl)c1ccc(Cl)cc1Cl :: 1
Cc1cccc(OP(=O)(Oc2cccc(C)c2)Oc2cccc(C)c2)c1 :: 0
CCCCCCCCCCCCc1cccc(S(=O)(=O)O)c1 :: 1
O=S1(=O)OC(c2cc(Br)c(O)c(Br)c2)(c2cc(Br)c(O)c(Br)c2)c2ccccc21 :: 1
CCC[CH2][Sn]([Cl])([Cl])[CH2]CCC :: 1
CC(O)(CS(=O)(=O)c1ccc(F)cc1)C(=O)Nc1ccc(C#N)c(C(F)(F)F)c1 (stereo not drawn) :: 0

Incoming: Which result was noted for this molecule in the test: [Cl][Sn]([c]1ccccc1)([c]1ccccc1)[c]1ccccc1
Outgoing: 1

Incoming: # lookup: test call for Cc1ccc2nc3sc(=O)sc3nc2c1
Outgoing: 1

---

# Assay Comment: ATG_M_06_CIS: Attagene CIS-FACTORIAL HepG2 Assay for M06 Transcription Factor (Internal Marker) (AID 2282950)
# Recorded Conditions: HepG2 Attagene CIS-FACTORIAL M06 internal marker reporter; actives raise or lower the signal
Activity calls are given as the source filed them. The calls were made as follows: active = hit-call score of the fitted dose curve at least 0.9, where 1 is the maximum; inactive = score below 0.9.
Mark one answer only. Choices: active, inactive

CCOP(=S)(OCC)OP(=S)(OCC)OCC :: inactive
OC(Cc1ccccc1Cl)(Cn1cncn1)C1(Cl)CC1 (configuration not stated) :: inactive
ClCCCCl :: inactive
CCCCS(=O)(=O)Cl :: inactive
CN(C)CCN(C)C :: inactive

Incoming: In this assay, the call recorded for O=S1(=O)OC(c2cc(Br)c(O)c(Br)c2)(c2cc(Br)c(O)c(Br)c2)c2ccccc21 was what?
Outgoing: inactive

Incoming: Per the records of this test, what outcome belongs to O=[N+]([O-])c1ccc(Cl)c([N+](=O)[O-])c1 ?
Outgoing: inactive

Incoming: Call for entry O=C(Cl)OCCOCCOC(=O)Cl :
Outgoing: inactive

Incoming: Returns: the outcome recorded for CC(C)CP(=S)(S)CC(C)C in this assay.
Outgoing: inactive

Incoming: Test call for this compound, please: C=CC(=O)[O][Sn]([CH2]CCC)([CH2]CCC)[CH2]CCC
Outgoing: inactive

Incoming: Which outcome did this test record for the compound CC(C)[C@@H](Nc1ccc(C(F)(F)F)cc1Cl)C(=O)OC(C#N)c1cccc(Oc2ccccc2)c1 (some centres not stated) ?
Outgoing: inactive

---

# System Under Test: X-box-binding protein 1 (Homo sapiens) (UniProt P17861)
# Sequence (P17861 whole entry, looked up): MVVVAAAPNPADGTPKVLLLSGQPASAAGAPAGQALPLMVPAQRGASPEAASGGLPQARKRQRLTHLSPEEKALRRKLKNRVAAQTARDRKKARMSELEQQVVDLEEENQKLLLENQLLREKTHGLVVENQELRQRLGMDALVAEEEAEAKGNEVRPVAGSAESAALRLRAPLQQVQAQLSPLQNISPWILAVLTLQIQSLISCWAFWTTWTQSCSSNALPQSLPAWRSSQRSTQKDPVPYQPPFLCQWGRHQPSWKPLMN
# Assay Comment: ATG_Xbp1_CIS: Attagene CIS-FACTORIAL HepG2 Assay for human X-box Binding Protein 1 (XBP1) (AID 2282972)
# Recorded Conditions: HepG2 XBP1 cis-element reporter, Attagene multiplex; actives raise or lower the signal
Calls of active or inactive are those of the source. How the source made its calls: active means hit-call score of the fitted dose curve at least 0.9, where 1 is the maximum; inactive means score below 0.9.
Returns: one label drawn from 1 (yes) = active, 0 (no) = inactive

Previously resolved entries follow.
O=C(O)C1(c2ccc3c(c2)OC[C@H](Cc2ccc(-c4ccccc4)cc2)[C@H]3O)CCCC1 :: 0 (no)
Cc1ccc(CCl)cc1 :: 0 (no)
C=C(C)C(=O)OCCCCOC(=O)C(=C)C :: 0 (no)
CCOP(=S)(OCC)OP(=S)(OCC)OCC :: 0 (no)
C=CCOC(N)=O :: 0 (no)

Incoming: Per the assay record, what outcome was assigned to O=S(=O)(c1ccc(Cl)cc1)c1cc(Cl)c(Cl)cc1Cl ?
Outgoing: 0 (no)

Incoming: // return assay outcome for Brc1ccc(Oc2c(Br)cc(Br)cc2Br)c(Br)c1
Outgoing: 0 (no)

Incoming: How was C#C[C@]1(O)CC[C@H]2[C@@H]3CCC4=CC(=O)CC[C@]4(C)[C@H]3CC[C@@]21C classified in this test?
Outgoing: 0 (no)

Incoming: Per the records of this test, what outcome belongs to OC[C@@H](O)[C@H]1O[C@@H]2O[C@H](C(Cl)(Cl)Cl)O[C@@H]2[C@H]1O ?
Outgoing: 0 (no)

Incoming: Identify the outcome logged in this assay for the compound shown: Cc1cccc(N=Nc2ccc(N(C)C)cc2)c1
Outgoing: 0 (no)

Incoming: Which outcome was assigned to C=C(C)[C@@H]1CC=C(C=O)CC1 in this test?
Outgoing: 0 (no)

Incoming: Tell me the assay call for O=C(Nc1ccc(Br)cc1)c1cc(Br)cc(Br)c1O please.
Outgoing: 1 (yes)

Incoming: Assay result, entry O=c1[nH]c(=O)n(Cl)c(=O)n1Cl — outcome?
Outgoing: 0 (no)

---

# System Under Test: Paired box protein Pax-6 (Homo sapiens) (UniProt P26367)
# Sequence (P26367 whole entry, looked up): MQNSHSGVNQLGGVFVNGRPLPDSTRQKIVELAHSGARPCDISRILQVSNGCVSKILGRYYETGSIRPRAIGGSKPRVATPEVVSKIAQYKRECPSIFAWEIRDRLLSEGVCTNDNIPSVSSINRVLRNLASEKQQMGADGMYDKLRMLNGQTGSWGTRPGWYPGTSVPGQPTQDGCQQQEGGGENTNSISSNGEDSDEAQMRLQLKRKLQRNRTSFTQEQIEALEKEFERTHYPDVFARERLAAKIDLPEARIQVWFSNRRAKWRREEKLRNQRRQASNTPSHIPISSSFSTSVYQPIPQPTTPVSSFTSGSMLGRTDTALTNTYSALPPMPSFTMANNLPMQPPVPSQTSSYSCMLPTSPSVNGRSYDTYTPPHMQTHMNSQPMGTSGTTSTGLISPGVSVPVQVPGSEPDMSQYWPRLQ
# Assay Comment: ATG_Pax6_CIS: Attagene CIS-FACTORIAL HepG2 Assay for human Paired Box 6 (PAX6) (AID 2282956)
# Recorded Conditions: HepG2 CIS-FACTORIAL PAX6 reporter transcription, RNA readout; actives raise or lower the signal
Calls of active or inactive are those of the source. The calls were made as follows: active = hit-call score of the fitted dose curve at least 0.9, where 1 is the maximum; inactive = score below 0.9.
Output constraint: value belongs to active, inactive

CCOC(=O)CC(=O)CCl :: active
CC(C)=CC1C(C(=O)OCc2cccc(Oc3ccccc3)c2)C1(C)C (stereo unspecified) :: inactive
CN(C1CCCCC1)C1CCCCC1 :: inactive
CCCCCCCCCCCCBr :: inactive
Clc1cccc(Cl)c1 :: inactive

Incoming: // return assay outcome for C[C@H]1C(=O)O[C@@H]2CCN3CC=C(COC(=O)[C@](C)(O)[C@]1(C)O)[C@H]23
Outgoing: inactive

Incoming: Answer briefly: the call reported for CC(C)(c1ccc(O)c(-c2ccccc2)c1)c1ccc(O)c(-c2ccccc2)c1 in this assay.
Outgoing: inactive
